assay: Plasma and urine pharmacokinetics of alogliptin after a single oral dose (LC-MS/MS, noncompartmental); settings: human, plasma, po
assay_metric: Tmax

Annotate the compound Cn1c(=O)cc(N2CCC[C@@H](N)C2)n(Cc2ccccc2C#N)c1=O with its measured Tmax.
2 to 4 h

----------
experiment: Population PK/PD model fitted to study data: PK parameter estimates; type: in vivo, human; settings: human, plasma, oral; PK/PD model typical value; read-out: Central volume of distribution [V2/F]
assay_metric: Vd/F (L)
Give bare numbers, in L.

Annotate the molecule Cn1c(=O)cc(N2CCC[C@@H](N)C2)n(Cc2ccccc2C#N)c1=O with its measured Vd/F.
125
